Test: qHTS for Inhibitors of the Aldehyde Dehydrogenase Family (ALDH1A2, ALDH1A3, ALDH2, ALDH3A1) (AID 2061307); also: nearly all actives have a fitted effect of over 50% in size
Conditions: ALDH inhibition qHTS; series mostly up to 50.3 µM
Records with an inconclusive call do not appear. Activity calls are given as the source filed them. Calls follow the shape of the dose curve; as a rule, active = well fitted inhibition curve with a large enough effect; inconclusive = small, poorly fitted or top-dose-only effect; inactive = no such curve, though single readings can be large or run the other way.
The reply should name one outcome from True for active, False for inactive

O=S(=O)(NCCCCCCNS(=O)(=O)c1c(F)cccc1F)c1ccc2c(c1)OCCO2
True

Problem: Any idea what this test logged for CC(C)(C)OC(=O)N1CCN(c2ccc(NCc3ccc(-c4ccc(C#N)cc4)o3)cc2)CC1 ?
Solution: True

Problem: Likewise for O=c1ccc2c(OCCCCc3ccccc3)c3ccoc3cc2o1 ?
Solution: True

Problem: Likewise for Cc1nc2ccccn2c1P(=O)(c1ccccc1)c1ccccc1 ?
Solution: False

Problem: Likewise for CC1CN(S(=O)(=O)c2cccc3cnccc23)CCN1 (stereo not given) ?
Solution: False
